Test system: K562 (human leukemia cells)
Assay: MTT cancer cell growth inhibition
Format: cell-based
Conditions: Homo sapiens, K562, 72 h, MTT, 72 hours incubation, K562 cells; read-out: GI50 K562
readoutKind: GI50 (nM)

Study these solved cases before continuing.
C/C=C1\NC(=O)c2ccc(F)c(n2)CNC(=O)C[C@@H](/C=C/CCS)OC(=O)[C@H](C(C)C)NC1=O [Compound 108]
59
C/C=C1\NC(=O)c2nc(ccc2SC)CNC(=O)C[C@@H](/C=C/CCSC(=O)CCCCCCC)OC(=O)[C@H](CC)NC1=O [Compound 171]
46
C/C=C1\NC(=O)c2cc(SC)cc(n2)CNC(=O)C[C@@H](/C=C/CCSC(C)=O)OC(=O)[C@H](CCCCN)NC1=O [Compound 193]
35
C/C=C1\NC(=O)c2cccc(n2)CNC(=O)C[C@@H](/C=C/CCS)OC(=O)[C@H](C)NC1=O [Example 29]
34
C=C1NC(=O)c2cccc(n2)CNC(=O)C[C@@H](/C=C/CCSC(C)=O)OC(=O)[C@H](C(C)C)NC1=O [Compound 19]
26

(P) C/C=C1\NC(=O)c2cc(SC)cc(n2)CNC(=O)C[C@@H](/C=C/CCSC(C)=O)OC(=O)[C@@H](C)NC1=O [Compound 221]
(Q) C/C=C1\NC(=O)c2nc(ccc2F)CNC(=O)C[C@@H](/C=C/CCSC(C)=O)OC(=O)[C@@H](C)NC1=O [Compound 100]
Which shows the larger GI50 value: P or Q ? Write down the label of the entry you select.
P

(I) C/C=C1\NC(=O)c2ccc(SCC)c(n2)CNC(=O)C[C@@H](/C=C/CCSC(=O)CCCCC)OC(=O)[C@H](C(C)C)NC1=O [Compound 255]
(II) C/C=C1\NC(=O)c2nc(ccc2F)CNC(=O)C[C@@H](/C=C/CCSC(=O)CCCCCCC)OC(=O)[C@H](CC)NC1=O [Example 54]
In terms of reported GI50, does I or II have the smaller number? Pick one and reply with its label.
II

* * *

Target: HDAC1 (Homo sapiens)
Sequence (Q13547 whole entry, species assumed): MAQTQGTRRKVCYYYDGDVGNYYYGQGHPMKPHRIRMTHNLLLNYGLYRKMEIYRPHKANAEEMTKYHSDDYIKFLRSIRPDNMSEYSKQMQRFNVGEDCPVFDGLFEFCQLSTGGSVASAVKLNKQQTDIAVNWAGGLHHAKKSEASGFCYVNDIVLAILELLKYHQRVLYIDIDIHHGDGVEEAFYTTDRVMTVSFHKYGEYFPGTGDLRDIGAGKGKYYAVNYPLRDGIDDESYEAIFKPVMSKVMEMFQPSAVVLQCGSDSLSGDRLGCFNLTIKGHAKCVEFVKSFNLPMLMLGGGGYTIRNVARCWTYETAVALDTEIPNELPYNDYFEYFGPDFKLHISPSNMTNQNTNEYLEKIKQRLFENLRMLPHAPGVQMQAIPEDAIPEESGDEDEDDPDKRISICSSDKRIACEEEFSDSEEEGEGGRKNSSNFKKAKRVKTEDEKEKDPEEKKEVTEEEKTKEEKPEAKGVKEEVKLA
Experiment: HDAC biochemical activity measurement (fluorescent substrate deacetylation);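 also: fluorogenic acetyl-lysine substrate (20 µM) deacetylated by HDAC1, then developer releases fluorophore read at 360 nm excitation and 460 nm emission, inhibitor incubated 30 min at 37 °C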
Details: Table 3, column C; read-out: IC50 HDAC1, C (six-membered ring with substituents)
pIC50: −log10 of the molar value.
readoutKind: pIC50

C/C=C1\NC(=O)c2cc(F)cc(n2)CNC(=O)C[C@@H](/C=C/CCSC(=O)CCCCCCC)OC(=O)[C@H](CC)NC1=O
7.89

(1) C/C=C1\NC(=O)c2cc(F)cc(n2)CNC(=O)C[C@@H](/C=C/CCSC=O)OC(=O)[C@H](C(C)C)NC1=O
(2) C/C=C1\NC(=O)c2cc(F)cc(n2)CNC(=O)C[C@@H](/C=C/CCSC(=O)CC)OC(=O)[C@H](C(C)C)NC1=O
// pick larger pIC50 from pair: 1 vs 2 Return value: the label identifying the chosen record.
2
(2: 7.66, 1: 7.35)

* * *

Test system: H1975 (non-small cell lung adenocarcinoma)
Assay: MTT cancer cell growth inhibition
Type: cell-based
Details: Homo sapiens, NCI-H1975, 72 h, MTT, 72 hours incubation, H1975 cells; read-out: GI50 H1975
readoutKind: GI50 (nM)

C/C=C1\NC(=O)c2nc(ccc2SC)CNC(=O)C[C@@H](/C=C/CCSC(=O)CCCCCCC)OC(=O)[C@H](CC)NC1=O
71
C=C1NC(=O)c2cc(F)cc(n2)CNC(=O)C[C@@H](/C=C/CCSC(C)=O)OC(=O)[C@H](C(C)C)NC1=O
61
C=C1NC(=O)c2nc(ccc2F)CNC(=O)C[C@@H](/C=C/CCSC(C)=O)OC(=O)[C@H](C)NC1=O
34
C/C=C1\NC(=O)c2cccc(n2)CNC(=O)C[C@@H](/C=C/CCSC(=O)CCCCC)OC(=O)[C@H](C(C)C)NC1=O
29
C/C=C1\NC(=O)c2cc(F)cc(n2)CNC(=O)C[C@@H](/C=C/CCSC(C)=O)OC(=O)[C@@H](C)NC1=O
69
C/C=C1\NC(=O)c2nc(ccc2SC)CNC(=O)C[C@@H](/C=C/CCSC(=O)CC)OC(=O)[C@H](C(C)C)NC1=O
49
C/C=C1\NC(=O)c2ccc(SCC)c(n2)CNC(=O)C[C@@H](/C=C/CCSC(=O)CCCCC)OC(=O)[C@H](C(C)C)NC1=O
68
C/C=C1\NC(=O)c2nc(ccc2F)CNC(=O)C[C@@H](/C=C/CCS)OC(=O)[C@H](C)NC1=O
16

(I) C=C1NC(=O)c2cccc(n2)CNC(=O)C[C@@H](/C=C/CCSC(C)=O)OC(=O)[C@H](C)NC1=O
(II) C/C=C1\NC(=O)c2ccc(SC)c(n2)CNC(=O)C[C@@H](/C=C/CCSC(C)=O)OC(=O)[C@H](CCCCN)NC1=O
Param pair: I , II . Output: the one whose GI50 is numerically greater. Reply with the label of the item you choose.
I

* * *

Test system: MOLT-4 (human acute lymphoblastic leukemia cells)
Assay: MTT cancer cell growth inhibition
Assay type: cell-based
Details: Homo sapiens, MOLT-4, 72 h, MTT, 72 hours; present invention; read-out: GI50 Molt-4, a
readoutKind: GI50 (nM)

C/C=C1\NC(=O)c2cccc(n2)CNC(=O)C[C@@H](/C=C/CCSC(=O)CCCCCCC)OC(=O)[C@H](CC)NC1=O
11

(a) C/C=C1\NC(=O)c2cccc(n2)CNC(=O)C[C@@H](/C=C/CCSC(=O)CCCCCCC)OC(=O)[C@H](C)NC1=O
(b) C/C=C1\NC(=O)c2cccc(n2)CNC(=O)C[C@@H](/C=C/CCSC(=O)CCCCCCC)OC(=O)[C@H](CSCC)NC1=O
(c) C/C=C1\NC(=O)c2cccc(n2)CNC(=O)C[C@@H](/C=C/CCSC(=O)CCCCCCC)OC(=O)[C@H](CC(C)C)NC1=O
Order the entries by their reported GI50, beginning at the minimum. List each label, following the requested order.
c, a, b
(c: 3 nM, a: 17 nM, b: 32 nM)

* * *

System: DU145 (human prostate cancer cells)
Assay: MTT cancer cell growth inhibition
Assay type: cell-based
Settings: Homo sapiens, DU-145, 72 h, DU145 cells, MTT, 72 hours incubation; read-out: GI50 Du1
readoutKind: GI50 (µM)

Consider the reported GI50 for these molecules:
C/C=C1\NC(=O)c2ccc(SC)c(n2)CNC(=O)C[C@@H](/C=C/CCSC(=O)CCCC)OC(=O)[C@H](C(C)C)NC1=O
0.06
C/C=C1\NC(=O)c2nc(ccc2SC)CNC(=O)C[C@@H](/C=C/CCSC(=O)CC)OC(=O)[C@H](C(C)C)NC1=O
0.01
C=C1NC(=O)c2cccc(n2)CNC(=O)C[C@@H](/C=C/CCSC(=O)CCCCCCC)OC(=O)[C@H](C(C)C)NC1=O
0.95
C=C1NC(=O)c2ccc(SC)c(n2)CNC(=O)C[C@@H](/C=C/CCSC(C)=O)OC(=O)[C@H](C(C)C)NC1=O
0.01
C/C=C1\NC(=O)c2cc(SC)cc(n2)CNC(=O)C[C@@H](/C=C/CCSC=O)OC(=O)[C@H](C(C)C)NC1=O
0.07
C/C=C1\NC(=O)c2cc(SC)cc(n2)CNC(=O)C[C@@H](/C=C/CCSC(=O)CCCCCCC)OC(=O)[C@H](C(C)C)NC1=O
0.05
C/C=C1\NC(=O)c2ccc(SC)c(n2)CNC(=O)C[C@@H](/C=C/CCSC(C)=O)OC(=O)[C@H](Cc2ccc(O)cc2)NC1=O
0.04
C/C=C1\NC(=O)c2ccc(SCC)c(n2)CNC(=O)C[C@@H](/C=C/CCSC(=O)CCCCC)OC(=O)[C@H](C(C)C)NC1=O
0.04
C/C=C1\NC(=O)c2cc(SC)cc(n2)CNC(=O)C[C@@H](/C=C/CCSC(C)=O)OC(=O)[C@H](C(C)C)NC1=O
0.06
C/C=C1\NC(=O)c2nc(ccc2SC)CNC(=O)C[C@@H](/C=C/CCSC(=O)CCCCCC)OC(=O)[C@H](C(C)C)NC1=O
0.04

(a) C/C=C1\NC(=O)c2ccc(SC)c(n2)CNC(=O)C[C@@H](/C=C/CCS)OC(=O)[C@H](C(C)C)NC1=O
(b) C/C=C1\NC(=O)c2nc(ccc2SC)CNC(=O)C[C@@H](/C=C/CCSC(=O)CCCC)OC(=O)[C@H](C(C)C)NC1=O
# min-compare on GI50 between a and b Pick one; state its label.
a
(a: 0.02 µM, b: 0.08 µM)

* * *

Tested on: U937 (human leukemia cells)
Assay: MTT cancer cell growth inhibition
Format: cell-based
Conditions: Homo sapiens, U-937, 72 h, MTT, 72 hours incubation; read-out: GI50 U93
Source text: MTT assay principle is yellow MTT can penetrate membrane into the cell, succinic dehydrogenase of the mitochondria in living cells can make exogenous MTT reduction of insoluble in water of blue-violet acicular formazan for crystallization and deposition in the cell, crystallization can be dissolved dimethyl sulfoxide (DMSO) solution, detected its absorbance at 490 nm/570 nm wavelength by enzyme-linked immunosorbent assay, which can reflect the number of cells. […] e) 570 nm readings. […]
readoutKind: GI50 (nM)

(A) C/C=C1\NC(=O)c2nc(ccc2F)CNC(=O)C[C@@H](/C=C/CCSC(=O)CCCCCCC)OC(=O)[C@H](C)NC1=O
(B) C/C=C1\NC(=O)c2nccc(n2)CNC(=O)C[C@@H](/C=C/CCS)OC(=O)[C@H](C)NC1=O
(C) C/C=C1\NC(=O)c2cccc(n2)CCNC(=O)C[C@@H](/C=C/CCSC(C)=O)OC(=O)[C@H](C(C)C)NC1=O
List by increasing GI50. The reply should contain the labels ordered as requested.
A, B, C

(1) C/C=C1\NC(=O)c2cccc(n2)CNC(=O)C[C@@H](/C=C/CCS)OC(=O)[C@H](Cc2ccc(O)cc2)NC1=O
(2) C/C=C1\NC(=O)c2ccc(F)c(n2)CNC(=O)C[C@@H](/C=C/CCSC(=O)CCCCC)OC(=O)[C@H](C(C)C)NC1=O
Sorting by GI50 in descending order, would 1 or 2 appear first? Please reply using the label of the selected record.
1

The values you see were collected from patent US10065990B2.
